Recorded pIC50 values (Cathepsin S (Homo sapiens, UniProt P25774)) are given below.
Interpret pIC50 as the negative base-10 log of the concentration measured in mol/L.

• CS(=O)(=O)N1CCc2c(c(-c3ccc(Cl)c(C#Cc4ccc(CNCC(F)(F)F)cc4)c3)nn2CCCN2CCC(N3CCCC3=O)CC2)C1 = 7.02
• CN(Cc1ccc(Cl)cc1)Cc1ccc(C#Cc2cc(-c3nn(CCCN4CCN(c5ccccc5)CC4)c4c3CN(S(C)(=O)=O)CC4)ccc2Cl)cc1 = 7.14
• C[C@H]1COCCN1CCCn1nc(-c2ccc(Cl)c(C#Cc3ccc(CNCc4ccc(Cl)cc4)cc3)c2)c2c1CCN(S(C)(=O)=O)C2 = 7.12

Give reported pIC50 for CC(=O)N1CCc2c(c(-c3ccc(C(F)(F)F)c(SCC(=O)N4CCCC4)c3)nn2C[C@H](O)CN2CCC(C(C)(C)O)CC2)C1 (Cathepsin S (Homo sapiens, UniProt P25774))
6.80

Give reported pIC50 for C[C@H]1COCCN1CCCn1nc(-c2ccc(Cl)c(C#Cc3ccc(Cl)c(C(=O)NC[C@@H]4CCCN4)c3)c2)c2c1CCN(C(=O)C(N)=O)C2 (Cathepsin S (Homo sapiens, UniProt P25774))
7.60

Give reported pIC50 for CC(C)=CC(=O)NCc1cc(-c2nn(CCCN(C)C)c3c2CN(C(=O)CC2CCNCC2)CC3)ccc1C(F)(F)F (Cathepsin S (Homo sapiens, UniProt P25774))
6.59

###

Target: Cathepsin S (Homo sapiens, UniProt P25774)
Sequence (P25774 whole entry): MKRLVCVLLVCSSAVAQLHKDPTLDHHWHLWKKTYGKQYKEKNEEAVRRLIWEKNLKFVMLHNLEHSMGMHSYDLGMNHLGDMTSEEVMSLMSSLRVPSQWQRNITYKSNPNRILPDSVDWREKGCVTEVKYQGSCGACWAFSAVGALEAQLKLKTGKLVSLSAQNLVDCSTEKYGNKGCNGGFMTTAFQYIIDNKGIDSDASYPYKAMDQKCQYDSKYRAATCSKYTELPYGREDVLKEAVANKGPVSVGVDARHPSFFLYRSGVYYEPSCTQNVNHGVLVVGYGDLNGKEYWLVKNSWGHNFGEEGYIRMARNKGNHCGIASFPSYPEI
Measured pIC50 accompanies every entry in the list below.
Interpret pIC50 as the negative base-10 log of the concentration measured in mol/L.

- CC(C)(O)CNCc1cc(C#Cc2cc(-c3nn(CCCN4CCSCC4)c4c3CN(C(=O)C(N)=O)CC4)ccc2Cl)ccc1Cl: 7.60
- C[C@H]1COCCN1CCCn1nc(-c2ccc(Cl)c(C#Cc3ccc(C(=O)NCCN4CCOCC4)cc3)c2)c2c1CCN(C(=O)C(N)=O)C2: 7.35
- CS(=O)(=O)N1CCc2c(c(-c3ccc(Cl)c(C#Cc4cccc(CNCc5ccc(Cl)cc5)c4)c3)nn2CCCN2CCN(c3ccccc3)CC2)C1: 7.19
- COC(=O)[C@@H]1Cc2ccc(C#Cc3cc(-c4nn(CCCN5CCOCC5)c5c4CN(S(C)(=O)=O)CC5)ccc3Cl)cc2CN1: 7.19
- COc1ccccc1C1CCN(C[C@H](O)Cn2nc(-c3ccc(C(F)(F)F)c(SCCN4CCCCC4)c3)c3c2CCNC3)CC1: 6.70

Now for another entry.
Give reported pIC50 for CC1CCN(CCSc2cc(-c3nn(C[C@@H](O)CN4CCC(N5C[C@@H](O)CC5=O)CC4)c4c3CN(S(C)(=O)=O)CC4)ccc2C(F)(F)F)CC1 (Cathepsin S (Homo sapiens, UniProt P25774))
7.24

###

Target: Cathepsin S (Homo sapiens, UniProt P25774)
Test: D3R2020
VALUE_KIND: pIC50
Interpret pIC50 as the negative base-10 log of the concentration measured in mol/L.

Below, 3 compounds whose answers are already recorded.
- CC(C)(C)C1CCN(CCCn2nc(-c3ccc(C(F)(F)F)c(CNCc4ccc(F)cc4)c3)c3c2CCN(S(C)(=O)=O)C3)CC1: 7.52
- CS(=O)(=O)N1CCc2c(c(-c3ccc(Cl)c(CCCN4CCOCC4)c3)nn2CCCN2CCC(N3CCCC3=O)CC2)C1: 5.93
- C[C@H]1COCCN1CCCn1nc(-c2ccc(Cl)c(C#Cc3ccc(Cl)c(CNCCCO)c3)c2)c2c1CCN(C(N)=O)C2: 7.70

Report pIC50 for NC(=O)N1CCc2c(c(-c3ccc(Cl)c(CCc4ccc(Cl)cc4)c3)nn2C[C@@H](O)CN2CCC(C3CCNCC3)CC2)C1
7.82

###

Recorded pIC50 values (Cathepsin S (Homo sapiens, UniProt P25774)) are given below.
Interpret pIC50 as the negative base-10 log of the concentration measured in mol/L.

Below, 3 molecules whose answers are already recorded.
• CNCCCNC(=O)c1ccc(C#Cc2cc(-c3nn(CCCN4CCOC[C@@H]4C)c4c3CN(C(=O)C(N)=O)CC4)ccc2Cl)cc1 = 7.46
• CS(=O)(=O)N1CCc2c(c(-c3ccc(C(F)(F)F)c(SCC(=O)N4CCC[C@@H]4C(N)=O)c3)nn2CCCN2CCC(N3CCCC3=O)CC2)C1 = 7.07
• O=C(CO)N1CCc2c(c(-c3ccc(Cl)c(C#Cc4ccc(CNCc5ccc(Cl)cc5)cc4)c3)nn2CCCN2CCSCC2)C1 = 7.02

Report pIC50 for C[C@H]1COCCN1CCCn1nc(-c2ccc(Cl)c(CCc3ccc(CNCc4ccc(Cl)cc4)cc3)c2)c2c1CCN(C(=O)C(N)=O)C2
7.46

Report pIC50 for CC(C)(C)OC(=O)N1CCC(C2CCN(C[C@H](O)Cn3nc(-c4ccc(Cl)c(CCc5ccc(Cl)cc5)c4)c4c3CCN(C(N)=O)C4)CC2)CC1
7.60

Report pIC50 for CS(=O)(=O)N1CCc2c(c(-c3ccc(Cl)c(C#Cc4ccc(CNCc5ccc(Cl)cc5)cc4)c3)nn2CCCN2CCN(C3CC3)CC2)C1
7.19

###

Target: UniProt:P25774
VALUE_KIND: IC50 (µM)
Lab book: enter the figure in µM, no units written.

- CC(=O)NC1CCN(CCCn2nc(-c3ccc(Cl)c(C#Cc4ccc5c(c4)CNCC5)c3)c3c2CCN(S(C)(=O)=O)C3)CC1: 0.037
- CS(=O)(=O)N1CCc2c(c(-c3ccc(Cl)c(C#Cc4ccc(CNCc5ccc(Cl)cc5)cc4)c3)nn2CCCN2CCC(N3CCCC3=O)CC2)C1: 0.018

Now for another entry.
Give reported IC50 for CS(=O)(=O)N1CCc2c(c(-c3ccc(C(F)(F)F)c(CNCc4ccc(F)cc4)c3)nn2CCCN2CCC(C3CCCCC3)CC2)C1 (UniProt:P25774)
0.015
